assay-system: BRD4 bromodomain domain I [BRD4(1)] (Homo sapiens)
Construct: BRD4 bromodomain domain I [BRD4(1)]; purchased Cayman Chemicals
protocol-summary: BRD4 bromodomain domain 1 inhibition assay (TR-FRET)
Assay type: binding
pIC50: −log10 of the molar value.
assay-readout: pIC50

Report pIC50 for COc1cccc2c1N(C)c1cc(N[C@H]3CC[C@H](O)CC3)ncc1N(C)C2=O tested on BRD4 bromodomain domain I [BRD4(1)] (Homo sapiens).
< 5.30

Enter reported pIC50 observed with BRD4 bromodomain domain I [BRD4(1)] (Homo sapiens) for CCOc1cc(C(=O)N2CCN(C3CCN(C)CC3)CC2)ccc1Nc1cc2c(cn1)N(C)C(=O)c1c(F)cccc1O2
> 5.70

Can you look up pIC50 on BRD4 bromodomain domain I [BRD4(1)] (Homo sapiens) for CCOc1cc(C(=O)N2CCN(C3CCN(C)CC3)CC2)ccc1Nc1cc2c(cn1)N(C)C(=O)c1ccccc1S2 ?
< 5.30

Hi! What's the reported pIC50 for CN1C(=O)c2ccccc2N(C)c2cc(N[C@H]3CC[C@H](NS(=O)(=O)C4CC4)CC3)ncc21 on BRD4 bromodomain domain I [BRD4(1)] (Homo sapiens)?
5.30 to 5.70

Form entry - test system: BRD4 bromodomain domain I [BRD4(1)] (Homo sapiens); read-out: pIC50; compound: CCOc1cc(C(=O)N2CCN(C3CCN(C)CC3)CC2)ccc1Nc1cc2c(cn1)N(C)C(=O)c1cccc(F)c1N2C
5.30 to 5.70

Request body: readout pIC50, system BRD4 bromodomain domain I [BRD4(1)] (Homo sapiens), query C[C@@H]1C[C@H](Nc2cc3c(cn2)N(C)C(=O)c2ccccc2N3C)CC[C@H]1O . Return the value.
5.30 to 5.70

pIC50 of CN1C(=O)c2cccc(F)c2Oc2cc(N[C@H]3CC[C@H](O)CC3)ncc21 on BRD4 bromodomain domain I [BRD4(1)] (Homo sapiens)?
< 5.30

---

assay-system: ERK5 (Homo sapiens)
Construct: screened for activity against several kinases in Jurkat cells; endogenous in cells; host or cells: Jurkat cell lysate
Sequence (Q13164 whole entry): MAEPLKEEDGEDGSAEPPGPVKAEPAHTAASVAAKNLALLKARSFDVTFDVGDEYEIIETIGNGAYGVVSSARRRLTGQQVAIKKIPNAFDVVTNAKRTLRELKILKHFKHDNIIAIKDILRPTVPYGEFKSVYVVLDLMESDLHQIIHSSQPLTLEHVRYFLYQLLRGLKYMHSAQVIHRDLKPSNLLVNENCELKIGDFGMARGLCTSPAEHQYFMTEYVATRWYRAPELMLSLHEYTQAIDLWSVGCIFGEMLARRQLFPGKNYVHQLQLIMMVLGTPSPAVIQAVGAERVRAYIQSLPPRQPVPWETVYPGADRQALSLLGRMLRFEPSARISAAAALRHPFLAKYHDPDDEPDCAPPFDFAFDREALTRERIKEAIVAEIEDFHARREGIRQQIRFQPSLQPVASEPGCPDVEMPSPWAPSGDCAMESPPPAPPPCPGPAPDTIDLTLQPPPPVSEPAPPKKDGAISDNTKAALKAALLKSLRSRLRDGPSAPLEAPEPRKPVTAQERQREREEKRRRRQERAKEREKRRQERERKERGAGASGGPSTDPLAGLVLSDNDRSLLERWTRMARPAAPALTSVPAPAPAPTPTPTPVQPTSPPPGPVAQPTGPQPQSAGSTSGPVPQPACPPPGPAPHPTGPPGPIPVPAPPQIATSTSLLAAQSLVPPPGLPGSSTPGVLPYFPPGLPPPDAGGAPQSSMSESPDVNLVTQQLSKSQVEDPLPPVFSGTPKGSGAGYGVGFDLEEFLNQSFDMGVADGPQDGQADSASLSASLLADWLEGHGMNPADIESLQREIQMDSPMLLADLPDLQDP
protocol-summary: Probe-based (AX9989 acyl phosphate ATP probe) kinase profiling in Jurkat lysate: ERK5
Assay type: binding
condition-context: calculated from percent inhibition of AX9989 labeling and the screening concentration; Jurkat lysate
assay-readout: IC50

Which IC50 is reported for this compound? CCOc1cc(C(=O)N2CCC(N3CCN(C)CC3)CC2)ccc1Nc1cc2c(cn1)N(C)C(=O)C1CCCCC1N2C (centres unmarked)
> 500 nM

Looking for the measured IC50 of CN1C(=O)c2ccccc2N(C)c2cc(NC3CCOCC3)ncc21 , can you help?
101 to 500 nM

Endpoint output: IC50 of CN1C(=O)c2ccccc2N(C)c2cc(NC3CCC(C(=O)O)CC3)ncc21 (centres unmarked) . Value?
> 500 nM

Can you look up the measured IC50 of CCOc1cc(CO)ccc1Nc1cc2c(cn1)N(C)C(=O)c1ccccc1N2C for me?
101 to 500 nM

Query: IC50; subject: CCOc1cc(C(=O)N2CCN(C3CC3)CC2)ccc1Nc1cc2c(cn1)N(C)C(=O)c1ccccc1N2C
≤ 50 nM

Looking for the measured IC50 of CN1C(=O)c2ccccc2N(C)c2cc(N[C@H]3CC[C@H](N4CCCC4)CC3)ncc21 , can you help?
101 to 500 nM

Which IC50 value belongs to COc1cc(C(=O)N2CCC(N(C)C)C2)c(F)cc1Nc1cc2c(cn1)N(C)C(=O)c1ccccc1N2C (centres unmarked) ?
101 to 500 nM

Given the compound CC(=O)NC1CCC(Nc2cc3c(cn2)N(C)C(=O)c2ccccc2N3C)CC1 (centres unmarked) , what is its reported IC50?
> 500 nM
